PROCEDURE TEXT: SPECT/CT biodistribution of 111In-labeled tracers in HEK-FAP tumor-bearing mice
Type: in vivo, mouse
APPLIED CONDITIONS: mouse, in vivo, iv, 6 h p.i., 30 MBq IV, HEK-FAP mice; read-out: Liver %ID/g (mean ± SD)
PROPERTY NAME: tissue uptake at 6 h

[Q] Data request, read-out tissue uptake at 6 h, for CCCCCC(=O)N[C@H]1CSCc2cc(CSCCNC(=O)CN3CCN(CC(=O)O)CCN(CC(=O)O)CCN(CC(=O)O)CC3)cc(c2)CSC[C@@H](C(=O)O)NC(=O)[C@H](Cc2ccccc2)NC(=O)[C@H](CCC(N)=O)NC(=O)[C@H]([C@@H](C)O)NC(=O)[C@@H]2CCCN2C(=O)[C@@H]2CCCN2C1=O [^111In-FAP-2286, metal not drawn]
[A] 0.1 %ID/g

====

PROCEDURE TEXT: SPECT/CT biodistribution of 111In-labeled tracers in HEK-FAP tumor-bearing mice
Type: in vivo, mouse
APPLIED CONDITIONS: mouse, in vivo, iv, 24 h p.i., 30 MBq IV, HEK-FAP mice, n=9; read-out: Tumor %ID/g (mean ± SD)
PROPERTY NAME: tissue uptake at 24 h (%ID/g)
Give bare numbers, in %ID/g.

[Q] Which tissue uptake at 24 h is listed for CCCCCC(=O)N[C@H]1CSCc2cc(CSCCNC(=O)CN3CCN(CC(=O)O)CCN(CC(=O)O)CCN(CC(=O)O)CC3)cc(c2)CSC[C@@H](C(=O)O)NC(=O)[C@H](Cc2ccccc2)NC(=O)[C@H](CCC(N)=O)NC(=O)[C@H]([C@@H](C)O)NC(=O)[C@@H]2CCCN2C(=O)[C@@H]2CCCN2C1=O [^111In-FAP-2286, metal not drawn] ?
[A] 9.7

====

PROCEDURE TEXT: SPECT/CT biodistribution of 111In-labeled tracers in HEK-FAP tumor-bearing mice
Format: in vivo, mouse
APPLIED CONDITIONS: mouse, in vivo, iv, 48 h p.i., 30 MBq IV, HEK-FAP mice; read-out: Liver %ID/g (mean ± SD)
PROPERTY NAME: tissue uptake at 48 h
Numeric answer plus unit only.

[Q] For the molecule CCCCCC(=O)N[C@H]1CSCc2cc(CSCCNC(=O)CN3CCN(CC(=O)O)CCN(CC(=O)O)CCN(CC(=O)O)CC3)cc(c2)CSC[C@@H](C(=O)O)NC(=O)[C@H](Cc2ccccc2)NC(=O)[C@H](CCC(N)=O)NC(=O)[C@H]([C@@H](C)O)NC(=O)[C@@H]2CCCN2C(=O)[C@@H]2CCCN2C1=O [^111In-FAP-2286, metal not drawn] , what tissue uptake at 48 h is on record?
[A] 0.1 %ID/g

====

PROCEDURE TEXT: SPECT/CT biodistribution of 111In-labeled tracers in HEK-FAP tumor-bearing mice
Assay type: in vivo, mouse
APPLIED CONDITIONS: female, mouse, tumor and kidney, iv, 30 MBq, total radioactivity; tumor-to-kidney, 6 h p.i.; read-out: T/K ratio (mean ± SD)
PROPERTY NAME: tissue to tissue ratio at 6 h
Numbers only.

[Q] Look up tissue to tissue ratio at 6 h: CCCCCC(=O)N[C@H]1CSCc2cc(CSCCNC(=O)CN3CCN(CC(=O)O)CCN(CC(=O)O)CCN(CC(=O)O)CC3)cc(c2)CSC[C@@H](C(=O)O)NC(=O)[C@H](Cc2ccccc2)NC(=O)[C@H](CCC(N)=O)NC(=O)[C@H]([C@@H](C)O)NC(=O)[C@@H]2CCCN2C(=O)[C@@H]2CCCN2C1=O [^111In-FAP-2286, metal not drawn]
[A] 5
